Experiment: Cytotoxicity assay, MTT method
Type: cell-based, Human
Conditions: human; HepG2, MTT, 72 h incubation, n = 3; read-out: IC50 values of compounds, cytotoxic activity (symbol)
pIC50: −log10 of the molar value.
OBSERVABLE: pIC50

For record COc1cc(O)cc2c1cc([N+](=O)[O-])c1c(C(=O)O)cc3c(c12)OCO3 [AAD, Aristolochic acid IVa] the listed pIC50 is < 3.00

---

Assay: Cytotoxicity assay, MTT method
Format: cell-based, Human
Settings: human; HepG2, MTT, 72 h incubation, means ± SD, n = 3; read-out: IC50 values of compounds, cytotoxic activity
pIC50: −log10 of the molar value.
Threshold check on pIC50: at or above 4 gives criterion met, strictly below gives criterion not met.

IN: Confirm if pIC50 reported for the compound O=C(O)c1cc2c(c3c1c([N+](=O)[O-])cc1ccccc13)OCO2 [AAII] is 4 or above.
OUT: criterion not met

IN: Confirm if pIC50 reported for the compound COc1cc2c3c(cc4ccccc4c3c1OC)NC2=O [AL-BII] is 4 or above.
OUT: criterion met

IN: Confirm if pIC50 reported for the compound COc1cccc2c1C(=O)c1c(O)c3c(c(O)c1C2=O)C[C@@](O)(C(=O)CO)C[C@@H]3O[C@H]1C[C@H](N)[C@H](O)[C@H](C)O1 [Extract of ADM, Adriamycin] is 4 or above.
OUT: criterion met

IN: Confirm if pIC50 reported for the compound COc1cc2c3c(cc4ccccc4c3c1O)NC2=O [AL-FI] is 4 or above.
OUT: criterion not met

IN: Confirm if pIC50 reported for the compound O=C(O)c1cc2c(c3c1c([N+](=O)[O-])cc1ccc(O)cc13)OCO2 [AAC, aristolochic acid ΙΙΙ a] is 4 or above.
OUT: criterion not met

IN: Confirm if pIC50 reported for the compound COc1cccc2c1cc1c3c(cc4c(c32)OCO4)C(=O)N1 [AL-I, aristolactam Ι] is 4 or above.
OUT: criterion not met
